B1: WDR88 (parent)
chain: LLTITKAHSNAISNCCFTFSGHFL

Variants of: B1
assay-info: protein stability index of a GFP-peptide fusion (GPS, HEK-293T) (PSI 1-6); higher = more stable;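 further: lentivirally expressed fusions sorted by FACS into six bins by GFP to DsRed ratio, PSI derived from sequencing read proportions per bin multiplied by bin number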
condition: c terminus: a fixed tail appended
Provide the recorded protein stability index for the entries that follow.
// response body must contain only the number

Item under review: "S20R" . Reported protein stability index? 3.76

Item under review: "L2M" . Reported protein stability index? 2.53

Item under review: "T5Q" . Reported protein stability index? 1.69

Item under review: "S20Q" . Reported protein stability index? 2.88

Item under review: "I12S" . Reported protein stability index? 3.14

Item under review: "L24V" . Reported protein stability index? 1.91

Item under review: "L2G" . Reported protein stability index? 2.01

Item under review: "S9P" . Reported protein stability index? 2.39

Item under review: "N10D" . Reported protein stability index? 3.19

Item under review: "C16L" . Reported protein stability index? 3.05

Item under review: "F17H" . Reported protein stability index? 1.42

Item under review: "A11G" . Reported protein stability index? 3.47

Item under review: "L1M" . Reported protein stability index? 1.95

Item under review: "I4P" . Reported protein stability index? 2.15

Item under review: "N14H" . Reported protein stability index? 3.22

Item under review: "F17G" . Reported protein stability index? 1.69

Item under review: "C16A" . Reported protein stability index? 3.4

Item under review: "S13D" . Reported protein stability index? 2.2

Item under review: "I4M" . Reported protein stability index? 3.12

Item under review: "S20C" . Reported protein stability index? 2.69

Item under review: "G21Q" . Reported protein stability index? 2.92

Item under review: "T3I" . Reported protein stability index? 2.74
